# MEASURED ON: Cannabinoid receptor 2 (Homo sapiens, UniProt P34972)
# Sequence (P34972 whole entry): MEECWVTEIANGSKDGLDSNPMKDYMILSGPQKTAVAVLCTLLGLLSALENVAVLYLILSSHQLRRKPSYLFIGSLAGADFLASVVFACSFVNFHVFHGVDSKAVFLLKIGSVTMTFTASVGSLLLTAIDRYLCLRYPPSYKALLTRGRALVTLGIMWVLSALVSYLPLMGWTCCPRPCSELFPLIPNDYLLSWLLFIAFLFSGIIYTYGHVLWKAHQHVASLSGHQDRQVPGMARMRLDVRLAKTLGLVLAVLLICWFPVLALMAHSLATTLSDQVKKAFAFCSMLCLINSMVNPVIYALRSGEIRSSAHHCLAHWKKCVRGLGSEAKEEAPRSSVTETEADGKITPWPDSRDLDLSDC
# PROTOCOL DESCRIPTION: Agonist activity at human CB2 receptor expressed in CHO cells by [35S]GTP-gamma-S binding assay
QUANTITY KIND: pEC50
One number for each entry, as −log10 of the molar value.

# input Entry under review: CCCCCC(C)(C)c1ccc([C@@H]2CCC[C@@H](O)C2)cc1 (relative stereo) . Reported pEC50?
# output 7.40

====

# MEASURED ON: Cannabinoid receptor 2 (Homo sapiens)
pKi: −log10 of the molar value.
Output yes (1) for pKi not less than 6; output no (0) otherwise.

Solved entries (count: 4):
INSERT INTO assay_data (compound, assigned_category) VALUES
  ('CCCCCC(C)(C)c1ccc([C@H]2CCC[C@@H](O)C2)cc1 (relative stereo)', 'yes (1)'),
  ('CCC(C)(C)c1ccc([C@H]2CCC[C@@H](O)C2)cc1 (relative stereo)', 'no (0)'),
  ('CCCCCC(C)(C)c1ccc([C@@H]2CCC[C@@H](O)C2)cc1 (relative stereo)', 'yes (1)'),
  ('CCCCCCCCC(C)(C)c1ccc([C@@H]2C[C@H](O)CC[C@H]2CCCO)cc1 (relative stereo)', 'yes (1)');

# input Tell me whether pKi is at least 6 here: CCCCC(C)(C)c1ccc([C@H]2CCC[C@@H](O)C2)cc1 (relative stereo)
# output yes (1)

====

# PROTOCOL DESCRIPTION: Selectivity for human cloned CB2 receptor over Sprague Dawley rat brain membrane CB1 receptor
Can you tell me Ratio Ki for the items I'm about to list?

Here's what some known entries look like.
INSERT INTO measurements (compound, quantity_kind, measured_value) VALUES
  ('CCC(C)(C)c1ccc([C@H]2CCC[C@@H](O)C2)cc1 (relative stereo)', 'Ratio Ki', '> 2.5'),
  ('CCCC(C)(C)c1ccc([C@@H]2C[C@H](O)CC[C@H]2CCCO)cc1 (relative stereo)', 'Ratio Ki', 2.1),
  ('CCCCC(C)(C)c1ccc([C@H]2CCC[C@@H](O)C2)cc1 (relative stereo)', 'Ratio Ki', '> 16');

Go through the items and report each one's Ratio Ki.
1. CCCCCCCCC(C)(C)c1ccc([C@@H]2C[C@H](O)CC[C@H]2CCCO)cc1 (relative stereo)
2. CCCCC(C)(C)c1ccc([C@@H]2C[C@H](O)CC[C@H]2CCCO)cc1 (relative stereo)
3. CCCCCCCCC(C)(C)c1ccc([C@@H]2CCC[C@@H](O)C2)cc1 (relative stereo)
4. CCCC(C)(C)c1ccc([C@@H]2CCC[C@@H](O)C2)cc1 (relative stereo)
5. CCCCCCC(C)(C)c1ccc([C@@H]2C[C@H](O)CC[C@H]2CCCO)cc1 (relative stereo)
6. CCC(C)(C)c1ccc([C@@H]2C[C@H](O)CC[C@H]2CCCO)cc1 (relative stereo)
7. CCCCCCCC(C)(C)c1ccc([C@H]2CCC[C@@H](O)C2)cc1 (relative stereo)

# output
[1.3, 0.8, 0.7, 5.7, 2.3, "> 7.3", 1.2]

Go through the items and report each one's Ratio Ki.
1. CCCCCCCC(C)(C)c1ccc([C@@H]2CCC[C@@H](O)C2)cc1
2. CCCCCCCC(C)(C)c1ccc([C@@H]2C[C@H](O)CC[C@H]2CCCO)cc1 (relative stereo)
3. CCCCCC(C)(C)c1ccc([C@H]2CCC[C@@H](O)C2)cc1 (relative stereo)

# output
1. 1.3
2. 1.5
3. 4.6

====

Recorded below: pKi, system Cannabinoid receptor 2 (Homo sapiens, UniProt P34972).
Give bare numbers, as −log10 of the molar value.

Here's what some known entries look like.
INSERT INTO measurements (compound, measured_on, quantity_kind, measured_value) VALUES
  ('CCCCC(C)(C)c1ccc([C@@H]2C[C@H](O)CC[C@H]2CCCO)cc1 (relative stereo)', 'Cannabinoid receptor 2 (Homo sapiens, UniProt P34972)', 'pKi', 6.15),
  ('CCCCCCC(C)(C)c1ccc([C@@H]2CCC[C@@H](O)C2)cc1 (relative stereo)', 'Cannabinoid receptor 2 (Homo sapiens, UniProt P34972)', 'pKi', 6.75),
  ('CCCC(C)(C)c1ccc([C@@H]2CCC[C@@H](O)C2)cc1 (relative stereo)', 'Cannabinoid receptor 2 (Homo sapiens, UniProt P34972)', 'pKi', 5.82);

Go through the items and report each one's pKi.
1. CCCC(C)(C)c1ccc([C@@H]2C[C@H](O)CC[C@H]2CCCO)cc1 (relative stereo)
2. CCCCCCCC(C)(C)c1ccc([C@@H]2C[C@H](O)CC[C@H]2CCCO)cc1 (relative stereo)

# output
1: 5.75; 2: 6.76

Go through the items and report each one's pKi.
1. CCC(C)(C)c1ccc([C@@H]2C[C@H](O)CC[C@H]2CCCO)cc1 (relative stereo)
2. CCCCCCCCC(C)(C)c1ccc([C@@H]2CCC[C@@H](O)C2)cc1 (relative stereo)

# output
1: 5.87; 2: 5.97

Go through the items and report each one's pKi.
1. CCCC(C)(C)c1ccc([C@H]2CCC[C@@H](O)C2)cc1 (relative stereo)
2. CCC(C)(C)c1ccc([C@@H]2CCC[C@@H](O)C2)cc1 (relative stereo)
3. CCCCCC(C)(C)c1ccc([C@@H]2C[C@H](O)CC[C@H]2CCCO)cc1 (relative stereo)
4. CCCCCCC(C)(C)c1ccc([C@@H]2C[C@H](O)CC[C@H]2CCCO)cc1 (relative stereo)
5. CCCCCCCC(C)(C)c1ccc([C@H]2CCC[C@@H](O)C2)cc1 (relative stereo)
6. CCCCCCC(C)(C)c1ccc([C@H]2CCC[C@@H](O)C2)cc1 (relative stereo)
7. CCCCC(C)(C)c1ccc([C@@H]2CCC[C@@H](O)C2)cc1 (relative stereo)
8. CCCCCCCC(C)(C)c1ccc([C@@H]2CCC[C@@H](O)C2)cc1

# output
[5.69, 5.42, 6.66, 6.62, 6.17, 6.64, 6.26, 6.81]

====

# MEASURED ON: Cannabinoid receptor 1 (Rattus norvegicus)
# Sequence (P20272 whole entry): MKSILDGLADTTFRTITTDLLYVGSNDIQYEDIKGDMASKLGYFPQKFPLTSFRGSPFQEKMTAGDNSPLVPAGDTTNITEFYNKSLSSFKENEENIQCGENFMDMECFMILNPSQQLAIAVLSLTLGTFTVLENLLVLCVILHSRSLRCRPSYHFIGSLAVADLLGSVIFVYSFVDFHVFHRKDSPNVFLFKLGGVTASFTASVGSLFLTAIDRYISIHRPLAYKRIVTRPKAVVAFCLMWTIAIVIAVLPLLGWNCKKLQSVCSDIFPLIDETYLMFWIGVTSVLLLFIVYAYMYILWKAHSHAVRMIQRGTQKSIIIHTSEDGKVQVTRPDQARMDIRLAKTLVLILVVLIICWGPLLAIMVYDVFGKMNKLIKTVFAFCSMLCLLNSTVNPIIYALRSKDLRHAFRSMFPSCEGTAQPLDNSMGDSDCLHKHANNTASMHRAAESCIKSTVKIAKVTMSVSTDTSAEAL
Returns: string. Value is t if measured Ki is below 1000 nM, and f if it is greater than or equal to it.

Solved entries (count: 3):
INSERT INTO assay_data (molecule, assigned_category) VALUES
  ('CCCCCCCCC(C)(C)c1ccc([C@@H]2C[C@H](O)CC[C@H]2CCCO)cc1 (relative stereo)', 't'),
  ('CCCCCCC(C)(C)c1ccc([C@H]2CCC[C@@H](O)C2)cc1 (relative stereo)', 'f'),
  ('CCC(C)(C)c1ccc([C@@H]2C[C@H](O)CC[C@H]2CCCO)cc1 (relative stereo)', 'f');

# input Consider the molecule `CCCCCCC(C)(C)c1ccc([C@H]2CCC[C@@H](O)C2)c(O)c1` . Is its Ki strictly less than 1000 nM?
# output t

====

Recorded below: log10(Ki), system UniProt:P20272.
Record value = log10 of Ki given in µM.

INSERT INTO results (molecule, measured_value) VALUES
  ('CCCC(C)(C)c1ccc([C@@H]2CCC[C@@H](O)C2)cc1 (relative stereo)', 0.94);

Go through the items and report each one's log10(Ki).
1. CCCC(C)(C)c1ccc([C@@H]2C[C@H](O)CC[C@H]2CCCO)cc1 (relative stereo)
2. CCCCCCCCC(C)(C)c1ccc([C@@H]2CCC[C@@H](O)C2)cc1 (relative stereo)
3. CCCCCCCC(C)(C)c1ccc([C@@H]2C[C@H](O)CC[C@H]2CCCO)cc1 (relative stereo)
4. CCCCCCC(C)(C)c1ccc([C@@H]2C[C@H](O)CC[C@H]2CCCO)cc1 (relative stereo)

# output
1. 0.58
2. -0.13
3. -0.58
4. -0.26

# input Entry under review: CCCCC(C)(C)c1ccc([C@@H]2C[C@H](O)CC[C@H]2CCCO)cc1 (relative stereo) . Reported log10(Ki)?
# output -0.24

====

# PROTOCOL DESCRIPTION: Selectivity for human cloned CB2 receptor over Sprague Dawley rat brain membrane CB1 receptor
QUANTITY KIND: Ratio Ki
Numbers only.

Here's what some known entries look like.
INSERT INTO measurements (compound, quantity_kind, measured_value) VALUES
  ('CCCCCC(C)(C)c1ccc([C@@H]2CCC[C@@H](O)C2)cc1 (relative stereo)', 'Ratio Ki', 4.8),
  ('CCCCCCC(C)(C)c1ccc([C@@H]2CCC[C@@H](O)C2)cc1 (relative stereo)', 'Ratio Ki', 3.6),
  ('CCCCC(C)(C)c1ccc([C@@H]2CCC[C@@H](O)C2)cc1 (relative stereo)', 'Ratio Ki', 3.2),
  ('CCCCCCC(C)(C)c1ccc([C@H]2CCC[C@@H](O)C2)cc1 (relative stereo)', 'Ratio Ki', 13),
  ('CCCCCC(C)(C)c1ccc([C@@H]2C[C@H](O)CC[C@H]2CCCO)cc1 (relative stereo)', 'Ratio Ki', 1.4);

# input Entry under review: CCCCCCCCC(C)(C)c1ccc([C@H]2CCC[C@@H](O)C2)cc1 (relative stereo) . Reported Ratio Ki?
# output 1.5
